Known K of a selection of compounds
# test system: VhChiP (chitooligosaccharide-specific porin, chitoporin) (Vibrio harveyi, UniProt L0RVU0)
# Sequence (L0RVU0 26-375): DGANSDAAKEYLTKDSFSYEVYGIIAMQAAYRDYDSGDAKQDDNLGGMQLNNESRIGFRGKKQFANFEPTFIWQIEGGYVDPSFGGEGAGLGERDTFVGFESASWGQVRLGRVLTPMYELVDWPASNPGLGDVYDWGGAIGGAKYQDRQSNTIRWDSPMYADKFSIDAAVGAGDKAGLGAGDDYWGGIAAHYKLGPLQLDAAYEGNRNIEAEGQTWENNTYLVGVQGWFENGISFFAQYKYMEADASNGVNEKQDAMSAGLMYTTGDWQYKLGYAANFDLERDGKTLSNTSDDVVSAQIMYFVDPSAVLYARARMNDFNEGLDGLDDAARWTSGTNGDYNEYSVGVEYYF
# experiment summary: intrinsic tryptophan fluorescence titration
# Assay type: binding
# recorded conditions: 20 mM phosphate pH 7.4, 0.2% LDAO, 25 °C; one-site fit

Solved entries (count: 4):
CC(=O)N[C@H]1[C@H](O[C@H]2[C@H](O)[C@@H](NC(C)=O)[C@H](O[C@H]3[C@H](O)[C@@H](NC(C)=O)C(O)O[C@@H]3CO)O[C@@H]2CO)O[C@H](CO)[C@@H](O[C@@H]2O[C@H](CO)[C@@H](O[C@@H]3O[C@H](CO)[C@@H](O[C@@H]4O[C@H](CO)[C@@H](O)[C@H](O)[C@H]4NC(C)=O)[C@H](O)[C@H]3NC(C)=O)[C@H](O)[C@H]2NC(C)=O)[C@@H]1O (some centres unmarked) [Chitohexaose]: 13 ± 0.5 ×10^5 M^-1
CC(=O)N[C@H]1[C@H](O[C@H]2[C@H](O)[C@@H](NC(C)=O)C(O)O[C@@H]2CO)O[C@H](CO)[C@@H](O[C@@H]2O[C@H](CO)[C@@H](O[C@@H]3O[C@H](CO)[C@@H](O)[C@H](O)[C@H]3NC(C)=O)[C@H](O)[C@H]2NC(C)=O)[C@@H]1O (some centres unmarked) [Chitotetraose]: 1.4 ± 0.01 ×10^5 M^-1
CC(=O)N[C@H]1[C@H](O[C@H]2[C@H](O)[C@@H](NC(C)=O)[C@H](O[C@H]3[C@H](O)[C@@H](NC(C)=O)C(O)O[C@@H]3CO)O[C@@H]2CO)O[C@H](CO)[C@@H](O[C@@H]2O[C@H](CO)[C@@H](O[C@@H]3O[C@H](CO)[C@@H](O)[C@H](O)[C@H]3NC(C)=O)[C@H](O)[C@H]2NC(C)=O)[C@@H]1O (some centres unmarked) [Chitopentaose]: 3.8 ± 0.2 ×10^5 M^-1
CC(=O)N[C@H]1[C@H](O[C@H]2[C@H](O)[C@@H](NC(C)=O)C(O)O[C@@H]2CO)O[C@H](CO)[C@@H](O[C@@H]2O[C@H](CO)[C@@H](O)[C@H](O)[C@H]2NC(C)=O)[C@@H]1O (some centres unmarked) [Chitotriose]: 0.5 ± 0.03 ×10^5 M^-1

As a next step, examine the compound that follows.
Sample CC(=O)N[C@H]1[C@H](O[C@H]2[C@H](O)[C@@H](NC(C)=O)C(O)O[C@@H]2CO)O[C@H](CO)[C@@H](O)[C@@H]1O (some centres unmarked) [Chitobiose] ; K observed: 0.1 ± 0.04 ×10^5 M^-1

====

# test system: UniProt L0RVU0
# experiment summary: biochemical
# recorded conditions: read-out: WT ΔTm (fluorescence)
reported endpoint: ΔTm at 1000 µM (°C)
# number only, unit °C dropped from output

Fill in: UniProt L0RVU0 ΔTm at 1000 µM for CC(=O)N[C@H]1[C@H](O[C@H]2[C@H](O)[C@@H](NC(C)=O)[C@H](O[C@H]3[C@H](O)[C@@H](NC(C)=O)C(O)O[C@@H]3CO)O[C@@H]2CO)O[C@H](CO)[C@@H](O[C@@H]2O[C@H](CO)[C@@H](O[C@@H]3O[C@H](CO)[C@@H](O)[C@H](O)[C@H]3NC(C)=O)[C@H](O)[C@H]2NC(C)=O)[C@@H]1O (some centres unmarked) = 6

UniProt L0RVU0 assay, molecule CC(=O)N[C@H]1[C@H](O[C@H]2[C@H](O)[C@@H](NC(C)=O)C(O)O[C@@H]2CO)O[C@H](CO)[C@@H](O)[C@@H]1O (some centres unmarked) , recorded ΔTm at 1000 µM = 4

====

# test system: VhChiP (chitooligosaccharide-specific porin, chitoporin) (Vibrio harveyi, UniProt L0RVU0)
# experiment summary: biochemical
# recorded conditions: read-out: WT ΔTm (CD)
reported endpoint: ΔTm at 100 µM (°C)

Would you please look over these solved cases?
CC(=O)N[C@H]1[C@H](O[C@H]2[C@H](O)[C@@H](NC(C)=O)[C@H](O[C@H]3[C@H](O)[C@@H](NC(C)=O)C(O)O[C@@H]3CO)O[C@@H]2CO)O[C@H](CO)[C@@H](O[C@@H]2O[C@H](CO)[C@@H](O[C@@H]3O[C@H](CO)[C@@H](O[C@@H]4O[C@H](CO)[C@@H](O)[C@H](O)[C@H]4NC(C)=O)[C@H](O)[C@H]3NC(C)=O)[C@H](O)[C@H]2NC(C)=O)[C@@H]1O (some centres unmarked) [Chitohexaose]: 7
CC(=O)N[C@H]1[C@H](O[C@H]2[C@H](O)[C@@H](NC(C)=O)[C@H](O[C@H]3[C@H](O)[C@@H](NC(C)=O)C(O)O[C@@H]3CO)O[C@@H]2CO)O[C@H](CO)[C@@H](O[C@@H]2O[C@H](CO)[C@@H](O[C@@H]3O[C@H](CO)[C@@H](O)[C@H](O)[C@H]3NC(C)=O)[C@H](O)[C@H]2NC(C)=O)[C@@H]1O (some centres unmarked) [Chitopentaose]: 5.7
CC(=O)N[C@H]1[C@H](O[C@H]2[C@H](O)[C@@H](NC(C)=O)C(O)O[C@@H]2CO)O[C@H](CO)[C@@H](O[C@@H]2O[C@H](CO)[C@@H](O[C@@H]3O[C@H](CO)[C@@H](O)[C@H](O)[C@H]3NC(C)=O)[C@H](O)[C@H]2NC(C)=O)[C@@H]1O (some centres unmarked) [Chitotetraose]: 3.8

a. CC(=O)N[C@H]1[C@H](O[C@H]2[C@H](O)[C@@H](NC(C)=O)C(O)O[C@@H]2CO)O[C@H](CO)[C@@H](O[C@@H]2O[C@H](CO)[C@@H](O)[C@H](O)[C@H]2NC(C)=O)[C@@H]1O (some centres unmarked) [Chitotriose]
b. CC(=O)N[C@H]1[C@H](O[C@H]2[C@H](O)[C@@H](NC(C)=O)C(O)O[C@@H]2CO)O[C@H](CO)[C@@H](O)[C@@H]1O (some centres unmarked) [Chitobiose]
stdin: Larger number for ΔTm at 100 µM: a , or b ? Answer by quoting the chosen item's label.
stdout: a
(a: 3.2 °C, b: 2.1 °C)

====

# test system: VhChiP (chitooligosaccharide-specific porin, chitoporin) (Vibrio harveyi, UniProt L0RVU0)
# Sequence (L0RVU0 26-375): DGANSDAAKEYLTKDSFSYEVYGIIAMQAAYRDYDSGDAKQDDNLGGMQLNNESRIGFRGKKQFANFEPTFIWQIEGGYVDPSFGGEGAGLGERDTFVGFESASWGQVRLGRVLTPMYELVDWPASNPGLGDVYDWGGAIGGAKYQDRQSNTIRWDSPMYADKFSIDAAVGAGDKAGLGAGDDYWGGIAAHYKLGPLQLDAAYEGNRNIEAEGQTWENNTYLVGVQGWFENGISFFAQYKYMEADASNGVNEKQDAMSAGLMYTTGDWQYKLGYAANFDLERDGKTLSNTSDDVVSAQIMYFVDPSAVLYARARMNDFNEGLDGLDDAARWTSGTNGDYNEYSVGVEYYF
# experiment summary: biochemical
# recorded conditions: read-out: WT ΔTm (fluorescence)
reported endpoint: ΔTm at 1000 µM (°C)

CC(=O)N[C@H]1[C@H](O[C@H]2[C@H](O)[C@@H](NC(C)=O)[C@H](O[C@H]3[C@H](O)[C@@H](NC(C)=O)C(O)O[C@@H]3CO)O[C@@H]2CO)O[C@H](CO)[C@@H](O[C@@H]2O[C@H](CO)[C@@H](O[C@@H]3O[C@H](CO)[C@@H](O[C@@H]4O[C@H](CO)[C@@H](O)[C@H](O)[C@H]4NC(C)=O)[C@H](O)[C@H]3NC(C)=O)[C@H](O)[C@H]2NC(C)=O)[C@@H]1O (stereo partly shown): 8

a. CC(=O)N[C@H]1C(O)O[C@H](CO)[C@@H](O)[C@@H]1O (stereo partly shown)
b. CC(=O)N[C@H]1[C@H](O[C@H]2[C@H](O)[C@@H](NC(C)=O)C(O)O[C@@H]2CO)O[C@H](CO)[C@@H](O[C@@H]2O[C@H](CO)[C@@H](O)[C@H](O)[C@H]2NC(C)=O)[C@@H]1O (stereo partly shown)
stdin: Larger number for ΔTm at 1000 µM: a , or b ? Bench note: the answer is the label of the chosen record.
stdout: b
(b: 4 °C, a: 2 °C)

Numbers sourced from paper doi:10.1101/2020.06.24.169508v1.
